# Target: guinea pig IgG
# Protocol notes: ELISA, coated antigen, E. coli supernatant
Below, each entry is listed alongside its reported absorbance at 450 nm.
Report only the number, with the unit A450 understood.

| Binder | Units | absorbance at 450 nm |
| --- | --- | --- |
| SVG06 (VHH) VHH: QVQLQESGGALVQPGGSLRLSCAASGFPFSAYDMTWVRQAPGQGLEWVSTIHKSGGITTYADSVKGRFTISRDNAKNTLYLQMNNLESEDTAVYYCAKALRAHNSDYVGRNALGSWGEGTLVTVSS | A450 | 0.204 |
| SVG23 (VHH, not shown: large carriers) VHH: QVQLQESGGGLVQAGGSLRLSCAASGRAFGSYTMNWFRQAPGKERDFVAGIMSSGMNTWYADSVKGRFTISRDNAKNTVYLQMNSLKPEDTAVYYCASRPRSTMTSGRYLYDYWGQGTQVTVSS | A450 | 0.068 |

Identify the reported absorbance at 450 nm for the following entry. SVG03 (VHH, not shown: large carriers) VHH: QVQLQESGGGLVQAGGSLRLSCAASGRTFSNYVMGWFRQAPGKEREFVSAISWNGVSTFYADSVKGRFTISRDNAKNTVYLQMNSLKPEDTAVYYCAADERFVVRYNYWGQGTQVTVSS
0.063

Specify reported absorbance at 450 nm for the binder shown: SVG07 (VHH, not shown: large carriers) VHH: QVQLQESGPGLVKPSQTLSLTCTVSGGSITTTAYAWSWIRQPPGKGLEWMGAIRFDGTTDYSPSLKSRISISRDTSNNQFSLRMSSVTPEDTAVYYCARYGVVSDHGGLDYWGQGTQVTVSS
0.249

Please indicate absorbance at 450 nm recorded for SVG24 (VHH, not shown: large carriers) VHH: QVQLQQSGGGLVQAGGSLRLSCAASGRTFSTYNIAWFRQAPGKEREFVTAITWGSGNTYYADSVKGRFTISRDNAKNTVFLQMNSLKPDDTAVYYCAARRSLGPTMAFAYEYWGQGTQVTVSS
0.068
